- ASSAY_OVERVIEW: APR_HepG2_MitoMass_72hr: Apredica 72-hour HepG2 Assay for Mitochondrial Mass (AID 2282924);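 note: MitoTracker Red CMXRos stain intensity per cell imaged as mitochondrial mass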
- CONDITION: high-content imaging, actives raise or lower the signal
Activity calls are given as the source filed them. Rule for the calls: active = hit-call score of the fitted dose curve at least 0.9, where 1 is the maximum; inactive = score below 0.9.
Result category, one only: true (1) for active, false (0) for inactive

# count of solved cases: 5
In [3]: df
Out[3]:
                                  structure   category
0          CCCCCCCCCCCCc1cccc(S(=O)(=O)O)c1  false (0)
1                           Cc1cc(C)cc(C)c1  false (0)
2    O=C(N[C@H]1CN2CCC1CC2)c1ccc2c(c1)OCCO2  false (0)
3  O=C(O)C1(c2ccc3c(c2)OC[C@H](Cc2ccc(-c4ccccc4)cc2)[C@H]3O)CCCC1   true (1)
4                          Clc1cccc(Cl)c1Cl  false (0)

Turning to the following compound.
Lookup: Which outcome was entered for the compound Oc1c(Cl)cc(Cl)cc1Cl in this test?
Found: false (0)

----------
- ASSAY_OVERVIEW: IUF_NPC2b_neuronal_migration_120hr: Leibniz Research Institute for Environmental Medicine (IUF) 120-hour Neural Progenitor Cell Migration Assay for Neuron Migration (NPC2b) (AID 2284300)
Calls of active or inactive are those of the source. Rule for the calls: active = hit-call score of the fitted dose curve at least 0.9, where 1 is the maximum; inactive = score below 0.9.
OBSERVABLE: AC50

In [3]: df
Out[3]:
                                   molecule        test_value
0  O=S1OC[C@@H]2[C@H](CO1)[C@]1(Cl)C(Cl)=C(Cl)[C@@]2(Cl)C1(Cl)Cl (some centres undefined)          inactive
1  CCOCn1c(-c2ccc(Cl)cc2)c(C#N)c(Br)c1C(F)(F)F  35.4 µM (active)
2  CC(C)[C@@H](Nc1ccc(C(F)(F)F)cc1Cl)C(=O)OC(C#N)c1cccc(Oc2ccccc2)c1 (some centres undefined)          inactive
3  CS(=O)(=O)c1ccc(C(=O)C2C(=O)CCCC2=O)c(Cl)c1COCC(F)(F)F          inactive

----------
- MEASURED_TARGET: Cellular tumor antigen p53 (Homo sapiens) (UniProt P04637)
- Sequence (P04637 whole entry, looked up): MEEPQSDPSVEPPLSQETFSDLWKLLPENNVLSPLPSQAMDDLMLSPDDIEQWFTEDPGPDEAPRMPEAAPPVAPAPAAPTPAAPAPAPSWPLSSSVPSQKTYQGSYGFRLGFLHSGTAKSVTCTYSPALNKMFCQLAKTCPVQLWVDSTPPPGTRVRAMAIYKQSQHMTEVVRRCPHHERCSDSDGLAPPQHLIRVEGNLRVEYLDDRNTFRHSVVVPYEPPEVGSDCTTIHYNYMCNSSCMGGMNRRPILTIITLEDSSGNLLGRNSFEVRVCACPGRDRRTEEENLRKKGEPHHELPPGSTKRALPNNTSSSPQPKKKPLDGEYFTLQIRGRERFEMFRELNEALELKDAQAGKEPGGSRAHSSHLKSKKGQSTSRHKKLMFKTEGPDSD
- ASSAY_OVERVIEW: TOX21_p53_BLA_p3_ratio: Tox21 HCT-116 p53 Agonism Beta-lactamase Assay, Ratio, Phase 3 (AID 2283596)
Results filed as inconclusive are left out. Active and inactive are the calls of the source. How the source made its calls: active means hit-call score of the fitted dose curve at least 0.9, where 1 is the maximum; inconclusive means response in the unintended direction; inactive means score below 0.9.
Result category, one only: true (1) (active), false (0) (inactive)

# count of solved cases: 5
>>> print(df.to_string())
                                   compound   category
0  O=C1C[C@@H]2OCC=C3CN4CC[C@]56c7ccccc7N1[C@H]5[C@H]2[C@H]3C[C@H]46  false (0)
1     Cc1ccccc1OP(=O)(Oc1ccccc1C)Oc1ccccc1C  false (0)
2                      O=C(O)COc1ccc(Cl)cc1  false (0)
3              CCOP(=S)(OCC)Oc1ccc(Cl)cc1Cl  false (0)
4    N#CCCC(Br)(C#N)CBr (centres undefined)   true (1)

Lookup: Which outcome was entered for the compound COCCl in this test?
Found: false (0)

Lookup: Which outcome was entered for the compound Cc1cc(Cl)ccc1OCCCC(=O)O in this test?
Found: false (0)

Lookup: Which outcome was entered for the compound CN(N=O)C(N)=O in this test?
Found: false (0)

Lookup: Which outcome was entered for the compound CCN(N=O)C(N)=O in this test?
Found: false (0)

Lookup: Which outcome was entered for the compound CCCCS(=O)(=O)Cl in this test?
Found: false (0)

Lookup: Which outcome was entered for the compound N#CS in this test?
Found: false (0)

Lookup: Which outcome was entered for the compound C=CC(=O)OCC(COC(=O)C=C)(COC(=O)C=C)COC(=O)C=C in this test?
Found: false (0)

Lookup: Which outcome was entered for the compound CS(=O)(=O)c1ccc(C(=O)C2C(=O)CCCC2=O)c(Cl)c1COCC(F)(F)F in this test?
Found: false (0)

Lookup: Which outcome was entered for the compound O=S(=O)(c1ccc(Cl)cc1)c1cc(Cl)c(Cl)cc1Cl in this test?
Found: false (0)

The values you see were collected from PubChem BioAssay (EPA / NIEHS).
